Biological target: recombinant human proMMP9 (full length, latent form) (human, UniProt P14780 20-707)
Sequence (P14780 20-707): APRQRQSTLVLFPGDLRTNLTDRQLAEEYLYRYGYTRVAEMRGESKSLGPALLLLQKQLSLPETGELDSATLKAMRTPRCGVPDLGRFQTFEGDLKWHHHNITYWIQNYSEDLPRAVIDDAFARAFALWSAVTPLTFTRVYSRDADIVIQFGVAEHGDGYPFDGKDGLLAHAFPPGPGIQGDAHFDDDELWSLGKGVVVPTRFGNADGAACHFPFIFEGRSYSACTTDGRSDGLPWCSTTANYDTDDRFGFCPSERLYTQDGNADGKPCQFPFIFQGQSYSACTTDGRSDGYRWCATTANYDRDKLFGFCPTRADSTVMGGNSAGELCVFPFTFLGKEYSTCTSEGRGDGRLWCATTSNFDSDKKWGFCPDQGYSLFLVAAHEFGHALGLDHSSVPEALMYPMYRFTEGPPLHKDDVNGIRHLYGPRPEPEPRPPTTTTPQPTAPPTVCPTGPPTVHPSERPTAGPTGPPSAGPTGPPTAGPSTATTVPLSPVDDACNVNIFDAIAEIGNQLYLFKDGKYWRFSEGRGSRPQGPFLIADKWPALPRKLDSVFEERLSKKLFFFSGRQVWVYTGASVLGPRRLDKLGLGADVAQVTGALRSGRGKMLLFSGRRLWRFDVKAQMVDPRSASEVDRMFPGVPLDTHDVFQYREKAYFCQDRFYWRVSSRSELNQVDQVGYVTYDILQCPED
Test: cell-based or functional assay
Recorded measurements of IC50 (nM), DQ-gelatin digestion, MMP3/MMP9 assay, one per entry
measure.name: IC50 (nM), DQ-gelatin digestion, MMP3/MMP9 assay

>  <binder>
F20-VH-GL1-V4-V9/B08-VL-GL6c (antibody, human IgG4 S228P, V domains shown, The light chain constant region is not tied to it; also called F20-VH/B08-VLc variant; F20-VH/B08-VLc) VH: EVQLVESGGGLVQPGRSLRLSCAASGFTFNDYPMHWVRQAPGKGLEWVSGISSRSGSVGYAESVKGRFTISRDNAKNSLYLQMNSLRAEDTALYYCARDKIYYGSGSYDFYYYYGMDVWGQGTTVTVSS VL: QSALTQPASVSGSPGQSITISCTGTSNDVGAYNRVSWYQQHPGKAPKLMIYGVSNRPSGVSNRFSGSKSGNTASLTISGLQAEDEADFYCTSYSSSTTSYVVFGGGTKVTVL

>  <recorded.result>
9.52

$$$$
>  <binder>
F20-VH-GL1-V1-V9/B08-VL-GL6c (antibody, human IgG4 S228P, V domains shown) VH: EVQLVESGGGLVQPGRSLRLSCAASGFTFNDYPMHWVRQAPGKGLEWVSGISSQSGSVGYAESVKGRFTISRDNAKNSLYLQMNSLRAEDTALYYCARDKIYYGSGSYDFYYYYGMDVWGQGTTVTVSS VL: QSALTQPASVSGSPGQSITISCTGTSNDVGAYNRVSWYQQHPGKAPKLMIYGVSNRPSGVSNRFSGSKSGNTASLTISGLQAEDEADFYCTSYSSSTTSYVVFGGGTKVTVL

>  <recorded.result>
23.7

$$$$
>  <binder>
F20-VH-GL1-V1-V9-V14/B03-VL-GL1c (antibody, human IgG4 S228P, V domains shown) VH: EVQLVESGGGLVQPGRSLRLSCAASGFTFNDYPMHWVRQAPGKGLEWVSGISSQSGSVGYAESVKGRFTISRDNAKNSLYLQMNSLRAEDTALYYCARDKIYYGSGSYDFYYYYGIDVWGQGTTVTVSS VL: SSELTQDPAVSVALGQTVRITCQGDSLRSYYASWYQQKPGQAPVVVIYGKNNRPSGIPDRFSGSSSGNTVSLTITGAQAEDEADYYCQSRDNIGNHRVVLFGGGTKLTVL

>  <recorded.result>
15.2

$$$$
>  <binder>
F20-VH-GL1-V1-V9-V14/B08-VL-GL6c (antibody, human IgG4 S228P, V domains shown) VH: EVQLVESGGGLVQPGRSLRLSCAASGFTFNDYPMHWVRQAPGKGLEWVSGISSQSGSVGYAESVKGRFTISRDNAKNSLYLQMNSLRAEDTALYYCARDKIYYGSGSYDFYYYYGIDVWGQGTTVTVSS VL: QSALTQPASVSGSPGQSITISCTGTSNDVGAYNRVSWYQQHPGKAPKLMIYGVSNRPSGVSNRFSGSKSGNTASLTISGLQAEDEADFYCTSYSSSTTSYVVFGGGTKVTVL

>  <recorded.result>
38.1

$$$$
>  <binder>
F20-VH-GL1/B08-VL-GL6c (antibody, human IgG4, V domains shown) VH: EVQLVESGGGLVQPGRSLRLSCAASGFTFNDYPMHWVRQAPGKGLEWVSGISSNSGSVGYADSVKGRFTISRDNAKNSLYLQMNSLRAEDTALYYCARDKIYYGSGSYDFYYYYGMDVWGQGTTVTVSS VL: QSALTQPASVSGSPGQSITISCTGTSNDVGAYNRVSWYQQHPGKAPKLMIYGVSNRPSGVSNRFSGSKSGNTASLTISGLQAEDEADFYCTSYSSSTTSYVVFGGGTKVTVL

>  <recorded.result>
44

$$$$
